B1: CCDC6 (parent)
chain: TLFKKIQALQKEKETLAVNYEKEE

- Variants of: B1
- experiment summary: protein stability index of a GFP-peptide fusion (GPS, HEK-293T) (PSI 1-6); higher = more stable;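 note: lentivirally expressed fusions sorted by FACS into six bins by GFP to DsRed ratio, PSI derived from sequencing read proportions per bin multiplied by bin number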
- cond: c terminus: a fixed tail appended
Exercise: state measured protein stability index for each of the variants provided.
Lab note: record the figure alone, no unit after it.

protein stability index in this record for TLFKKIQALQKEKEVLAVNYEKEE [T15V] : 3.42

protein stability index in this record for TLFKKIQALQKEKETLAVNYEDEE [K22D] : 3.88

protein stability index in this record for TLFKKIQALQKEKETLSVNYEKEE [A17S] : 2.71

protein stability index in this record for TLFKKIQALQKEKETLAVDYEKEE [N19D] : 3.15

protein stability index in this record for TLFKKIQALQKEKETLAINYEKEE [V18I] : 3.04

protein stability index in this record for TLFKKIQALQKEKETLAVNYEKIE [E23I] : 2.69

protein stability index in this record for TLFKKIQALQDEKETLAVNYEKEE [K11D] : 3.79

protein stability index in this record for TLFKKIQALQKEKETLAVNYELEE [K22L] : 2.89

protein stability index in this record for TLFKKIQALQKEKETIAVNYEKEE [L16I] : 2.69

protein stability index in this record for TLFKKIQALQKEKETLYVNYEKEE [A17Y] : 2.46

protein stability index in this record for TLFKKIQALQKPKETLAVNYEKEE [E12P] : 3.66

protein stability index in this record for TLFKKIQALQKEKETHAVNYEKEE [L16H] : 3.91

protein stability index in this record for TLFKKIQALQKEKETLAVWYEKEE [N19W] : 2.11

protein stability index in this record for TLFKKMQALQKEKETLAVNYEKEE [I6M] : 4.32

protein stability index in this record for TLFKDIQALQKEKETLAVNYEKEE [K5D] : 4.85

protein stability index in this record for TLFKKIQALQKEKEMLAVNYEKEE [T15M] : 2.85

protein stability index in this record for TLFKKNQALQKEKETLAVNYEKEE [I6N] : 4.36

protein stability index in this record for TLFKKIQALQKEKETLAVNYETEE [K22T] : 2.68

protein stability index in this record for TLFKKIQALQMEKETLAVNYEKEE [K11M] : 2.78

protein stability index in this record for TLFKKFQALQKEKETLAVNYEKEE [I6F] : 3.99

protein stability index in this record for TLFKKIQALQKEKETLAVNYEAEE [K22A] : 3.27

protein stability index in this record for TLFKKIQALQKEKETLAVNYQKEE [E21Q] : 3.1

protein stability index in this record for TLFKKIQALQKEKETRAVNYEKEE [L16R] : 3.02

protein stability index in this record for TLFKKIQALQKWKETLAVNYEKEE [E12W] : 1.81

protein stability index in this record for TLFKKIQALQKEKETWAVNYEKEE [L16W] : 1.86

protein stability index in this record for TLFKKIQALQKEKSTLAVNYEKEE [E14S] : 2.46

protein stability index in this record for TLFKKIQALQKEKETLPVNYEKEE [A17P] : 2.84

protein stability index in this record for TLFKKINALQKEKETLAVNYEKEE [Q7N] : 4.02

protein stability index in this record for TLFKKIQALQKEKETLAVNYPKEE [E21P] : 2.72

protein stability index in this record for TLFKKIQALQKEKETLAVNYEKKE [E23K] : 2.68

protein stability index in this record for TLFKKIYALQKEKETLAVNYEKEE [Q7Y] : 2.55

protein stability index in this record for TLFKKIQALQEEKETLAVNYEKEE [K11E] : 3.69

protein stability index in this record for TLFKKIQALQKEKNTLAVNYEKEE [E14N] : 3.15

protein stability index in this record for TLFKLIQALQKEKETLAVNYEKEE [K5L] : 2.27

protein stability index in this record for TLFKKIQALQKESETLAVNYEKEE [K13S] : 3.23

protein stability index in this record for TQFKKIQALQKEKETLAVNYEKEE [L2Q] : 4.91

protein stability index in this record for TLFKKIQALQKENETLAVNYEKEE [K13N] : 3.17

protein stability index in this record for TLFWKIQALQKEKETLAVNYEKEE [K4W] : 2.74

protein stability index in this record for TLFKKIQALQKEKETDAVNYEKEE [L16D] : 3.88

protein stability index in this record for TLNKKIQALQKEKETLAVNYEKEE [F3N] : 4.59

protein stability index in this record for TLFKKIQALQKEKETLAVNYGKEE [E21G] : 3.01

protein stability index in this record for TLFKKIQANQKEKETLAVNYEKEE [L9N] : 4.55

protein stability index in this record for TLFKKIQALQKEGETLAVNYEKEE [K13G] : 3.73

protein stability index in this record for TLFKKIQALGKEKETLAVNYEKEE [Q10G] : 3.89

protein stability index in this record for TLFKKIQALQKEKELLAVNYEKEE [T15L] : 2.54

protein stability index in this record for TLFKKIQAVQKEKETLAVNYEKEE [L9V] : 4.22
